biological target: T1, Human CD3 on CD3+ Jurkat cells (human, UniProt P07766 23-207); experiment: flow cytometry, 100 nM IgG
T1 construct: whole, on cells; Target is the endogenous CD3 complex on cells; also called Human CD3+ Jurkat cells
T1 sequence (P07766 23-207): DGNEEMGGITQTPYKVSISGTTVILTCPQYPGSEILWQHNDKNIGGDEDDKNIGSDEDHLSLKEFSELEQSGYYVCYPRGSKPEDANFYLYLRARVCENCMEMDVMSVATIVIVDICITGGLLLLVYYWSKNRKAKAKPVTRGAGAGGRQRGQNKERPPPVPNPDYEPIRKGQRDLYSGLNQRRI
Quantity Name: MFI (MFI)
Dear colleague, please return just the value in MFI, with no unit written.

# count of solved cases: 3
Which MFI value belongs to Antibody No. V003 (ADI-67446) IgG1 (antibody, V domains shown, IgG1, CHO-produced) VH: QVQLVQSGAEVKKPGASVKVSCKASGFDIKDYYMHWVRQAPGQRLEWMGWIELENADTIYDAKFQGRVTITRDTSASTAYMELSSLRSEDTAVYYCARDAYGRYFYDVWGQGTLVTVSS VL: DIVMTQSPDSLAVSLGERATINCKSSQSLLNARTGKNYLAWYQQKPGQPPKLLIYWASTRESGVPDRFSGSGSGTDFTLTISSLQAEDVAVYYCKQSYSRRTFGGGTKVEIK ?
3020

Same question for Antibody No. V012 (ADI-70329) IgG1 (antibody, V domains shown, IgG1, CHO-produced) VH: QVQLVQSGAEVKKPGASVKVSCKASGFNDKDYYMHWVRQAPGQRLEWIGWIDLENAETVYDAKFQDRVTITRDTSASTAYMELSSLRSEDTAVYYCARDAYGRYFYDVWGQGTLVTVSS VL: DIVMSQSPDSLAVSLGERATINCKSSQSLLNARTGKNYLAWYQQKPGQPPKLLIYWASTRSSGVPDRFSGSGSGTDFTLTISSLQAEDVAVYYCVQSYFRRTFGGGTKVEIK please.
3020

Same question for Antibody No. V011 (ADI-70328) IgG1 (antibody, V domains shown, IgG1, CHO-produced) VH: QVQLVQSGAEVKKPGASVKVSCKASGFNIDDYYMHWVRQAPGQRLEWIGWIDLENDNTVYDAKFQGRVTITRDTSASTAYMELSSLRSEDTAVYYCARDAYGRYFYDVWGQGTLVTVSS VL: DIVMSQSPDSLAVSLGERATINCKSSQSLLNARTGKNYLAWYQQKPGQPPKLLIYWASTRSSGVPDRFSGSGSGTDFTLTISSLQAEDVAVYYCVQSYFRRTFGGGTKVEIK please.
3000

More entries:
Which MFI value belongs to Antibody No. V009 (ADI-70326) IgG1 (antibody, V domains shown, IgG1, CHO-produced) VH: QVQLVQSGAEVKKPGASVKVSCKASGFDIKDYYMHWVRQAPGQRLEWIGWIELENADTVYDAKFQGRVTITRDTSASTAYMELSSLRSEDTAVYYCARDAYGRYFYDVWGQGTLVTVSS VL: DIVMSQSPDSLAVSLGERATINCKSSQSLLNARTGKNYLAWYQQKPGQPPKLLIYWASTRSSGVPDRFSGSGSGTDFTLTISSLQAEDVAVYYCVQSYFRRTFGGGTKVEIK ?
3070

Same question for Antibody No. V010 (ADI-70327) IgG1 (antibody, V domains shown, IgG1, CHO-produced) VH: QVQLVQSGAEVKKPGASVKVSCKASGFDIKDYYMHWVRQAPGQRLEWIGWIELENDDTVYDAKFQGRVTITRDTSASTAYMELSSLRSEDTAVYYCARDAYGRYFYDVWGQGTLVTVSS VL: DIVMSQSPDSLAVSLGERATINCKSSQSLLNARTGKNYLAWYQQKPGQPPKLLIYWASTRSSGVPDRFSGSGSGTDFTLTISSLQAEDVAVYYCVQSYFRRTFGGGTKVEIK please.
2910

These measurements were taken from patent US20240317858A1.
